Just for reference, the RNAGym collection of RNA variant scans (doi:10.7554/elife.80360) is where these values come from.

B1: HDV Ribozyme (parent)
chain: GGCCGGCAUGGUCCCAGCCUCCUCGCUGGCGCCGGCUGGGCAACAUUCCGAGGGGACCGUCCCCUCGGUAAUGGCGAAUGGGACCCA

Variants of: B1
Assay: self-cleavage, relative activity (ratio to wild type); higher = more cleavage; co-transcriptional
// Not fulfilled strictly below 0.5 in self-cleavage; Fulfilled otherwise

Input: // inclusive: self-cleavage at least 0.5? input: G28C C41A
Output: Not fulfilled

Input: Please tell me: is the variant G28A G76C at or over 0.5 in terms of self-cleavage?
Output: Not fulfilled
